Cited source for all entries: the nanobody polyreactivity screen of Harvey et al. (2022)

# Assay Procedure: yeast display, Sf9 membrane polyspecificity reagent, FACS + sequencing; frameworks hold sequencing errors
Measurement Label: polyreactivity (PSR sort gate)

Examples with answers:
Primary Sequence	Measurement Label	Recorded Value
QVQLVESGGGLVQAGGSLRLSCAASGSTFRYYVMGWYRQAPGKERELVARITSAASTNYADSVKGRFTISRDNAKNTVYLQMNSLNPEDTAVYYCAARKYGSRYRLKYDYWGQGTQVTVSS	polyreactivity (PSR sort gate)	high polyreactivity
QVQLVESVVGLVQAGGSLRLSCAASGRTFYRNGMGWYRQAPGKERELVAAISSRGGSTYYADSVKGRFTISRDNAKNTVYLQMNSLKPEDTAVYYCAAPRASGYYWGQGTQVTVSS	polyreactivity (PSR sort gate)	high polyreactivity
QVQLVESGGGLVQAGGSLRLSCAASGRTLEHNAMGWYRQAPGKERELVAAISGSGGTTYYADSVKGRFTISRDNAKNTVYLQMNSLKPEDTAVYYCNAKLYRSFDYWGQGTQVTVSS	polyreactivity (PSR sort gate)	low polyreactivity
QVQLVESGGGLVQAGGSLRLSCAASGLIFQYYAMGWSRQAPGKERELVASISWSGSSTYYADSVKGRFTISRDNAKNTVYLQMISLKPEDTAVYYCAAGWGRGWYDYWGQGTQVTVSS	polyreactivity (PSR sort gate)	high polyreactivity

Using known records, supply polyreactivity (PSR sort gate) for QVQLVESGGGLVQAGGSLRLSCAASGITFETYAMGWYRPAPGTVRELVAAISSGTDDTYYADSVKGRFTISRDNATNTVYLQMNSLKPEDTAVYYCAALGYATGSWRYYYWGQGTQVTVSS
low polyreactivity
